# test description: in vivo
# test parameters: Alderley Park Han Wistar, rat, plasma, iv, 2 mg/kg
recorded metric: clearance (mL/min/kg)

- entry smiles: "COc1cccc2c3c([nH]c12)CCN(C(=O)[C@@H]1CCCC[C@H]1C(=O)NC1(C#N)CC1)C3"
  uom: "mL/min/kg"
  readout number: 53
- entry smiles: "N#CC1(NC(=O)[C@@H]2CCCC[C@H]2C(=O)N2CCc3[nH]c4ccc(F)cc4c3C2)CC1"
  uom: "mL/min/kg"
  readout number: 63

---

# test description: Fraction unbound in rat serum
# Type: ADME, cell-free
recorded metric: fraction unbound

- entry smiles: "COc1cccc2c3c([nH]c12)CCN(C(=O)[C@@H]1CCCC[C@H]1C(=O)NC1(C#N)CC1)C3"
  fraction unbound: 0.17

(P) N#CC1(NC(=O)[C@@H]2CCCC[C@H]2C(=O)N2CCc3[nH]c4ncccc4c3C2)CC1
(Q) N#CC1(NC(=O)[C@@H]2CCCC[C@H]2C(=O)N2CCc3[nH]c4ccc(F)cc4c3C2)CC1
Which record shows the lower fraction unbound: the first, P , or the second, Q ? // caller expects the label of the chosen entry
Q
(Q: 0.16, P: 0.42)
